Record form. Attribute: pIC50. Fill in for each entry.
system: Hemozoin; assay: Inhibition of beta-hematin formation
Answers are plain numbers, as −log10 of the molar value.

# compound, pIC50
rows = [
    ("COc1cc2c(cc1OC)CC(Nc1ccnc3cc(Cl)ccc13)C2", 6.41),
    ("COc1ccc(OC)c2c1CC(Nc1ccnc3cc(Cl)ccc13)C2", 6.32),
]

We next turn to a different compound, shown below.
# pIC50 (compound: CCN(CC)CCCC(C)Nc1ccnc2cc(Cl)ccc12 (stereo not drawn) ) is 6.74

----------
Can you tell me IC50 for the items I'm about to list?
test system: Plasmodium falciparum; test: Antimalarial activity against Chloroquine resistant Plasmodium falciparum Dd2 assessed as parasitic growth inhibition measured after 3 days by ELISA assay; type: functional, organism-based; conditions: Dd2, 72 h
One number for each entry, in nM.

Answered cases to consult:
# compound, quantity unit, data value
measured = [
    ("COc1cc(NC(C)CCCNC(=O)c2ccc(C(=O)NO)cc2)c2ncccc2c1 (stereo not drawn)", "nM", 1200),
    ("COc1cc(NC(C)CCCN)c2ncccc2c1 (stereo not drawn)", "nM", 4300),
]

Kindly review the next compound as well.
GET /values?item= COc1cc(NC(C)CCCNC(=O)CCCC(=O)NO)c2ncccc2c1 (stereo not drawn) &system= Plasmodium falciparum returns IC50: 1900
